Read-out: ABC Transporter (ABCB11), ABCB11 (gene 8647)
Experiment: CLD_ABCB11_48hr: CellzDirect (CLD) Gene Expression Assay for ABC Transporter (ABCB11) at 48 hours (AID 2283697)
Results filed as inconclusive are left out. The source made the active and inactive calls. The calls were made as follows: active = hit-call score of the fitted dose curve at least 0.9, where 1 is the maximum; inconclusive = response in the unintended direction; inactive = score below 0.9.
Write down one outcome, taken from active, inactive

Answered examples (5):
# Compound, Category label
records = [
    ("CCCCCOC(=O)COc1cc(N2C(=O)C3=C(CCCC3)C2=O)c(F)cc1Cl", "inactive"),
    ("COC(=O)c1c(Cl)nn(C)c1S(=O)(=O)NC(=O)Nc1nc(OC)cc(OC)n1", "inactive"),
    ("CCCN(CCC)C(=O)SCC", "inactive"),
    ("CC1(C)C(C=C(Cl)Cl)C1C(=O)OCc1cccc(Oc2ccccc2)c1 (centres undefined)", "inactive"),
    ("N#CSCSc1nc2ccccc2s1", "active"),
]

[ask] Assay outcome for "CCNc1nc(N)nc(Cl)n1" : what was it?
[reply] inactive

[ask] Assay outcome for CCC(C)OC(=O)N1CCCCC1CCO (centres undefined) : what was it?
[reply] inactive

[ask] Assay outcome for "COCCO" : what was it?
[reply] inactive

[ask] Assay outcome for CCCCC(CC)COC(=O)c1ccccc1C(=O)O (centres undefined) : what was it?
[reply] inactive
